// reported IC50 per item
System: human mixed lymphocyte reaction
Assay: Human Mixed Lymphocyte Reaction Test (MLR)
Assay type: cell-based
Conditions: 144 h, human MLR, tritiated-thymidine incorporation, 6 days, read-out: IC50
Structures can show the parent of a compound that is named as a salt.

O=C(O)c1cc(N2CCc3c(-c4ccccc4F)cccc32)nc2ccc(F)cc12 [Ex. 7]	< 50 nM
Cc1c(-n2ccc3c(-c4ccccc4)cccc32)nc2ccc(F)cc2c1C(=O)O [Ex. 46]	50 to 10000 nM
COc1cccc(-c2cccc3c2CCN3c2nc3ccc(F)cc3c(C(=O)O)c2C)c1 [Ex. 13, sodium salt]	< 50 nM
Cc1c(-n2cnc3c(-c4ccccc4)cc(F)cc32)nc2ccc(F)cc2c1C(=O)O [Ex. 68]	50 to 10000 nM
Cc1c(-c2cccc3c(-c4ccccc4)cccc23)nc2ccc(F)cc2c1C(=O)O [Ex. 128, sodium salt]	50 to 10000 nM
Cc1c(N2CCc3c(-c4ccccc4)cccc32)nc2ccc(F)cc2c1C(=O)O [Ex. 1]	< 50 nM
COc1ccccc1-c1cccc2c1CCN2c1nc2ccc(F)cc2c(C(=O)O)c1C [Ex. 9, sodium salt]	< 50 nM

Then this compound:
Query: Give recorded IC50. Cc1c(N2CCc3c(-c4ccccc4)cccc32)nc2ccccc2c1C(=O)O [Ex. 4]
Reply: 50 to 10000 nM
